Target: Ba/F3_KRAS^G12D cells (Homo sapiens, UniProt P01116, G12D, cells depend on it)
Sequence (P01116 whole entry G12D): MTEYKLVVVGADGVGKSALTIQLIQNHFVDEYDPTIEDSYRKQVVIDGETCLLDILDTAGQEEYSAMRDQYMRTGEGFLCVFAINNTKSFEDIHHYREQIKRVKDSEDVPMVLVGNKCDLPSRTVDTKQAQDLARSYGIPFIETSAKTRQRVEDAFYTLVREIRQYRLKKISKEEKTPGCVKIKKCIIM
Assay: Ba/F3 KRAS G12D cell proliferation assay (CellTiter-Glo)
Format: cell-based
Conditions: treated for 3 days, cell-titer Glo, cell growth inhibition, read-out: BaF3_KRAS^G12D IC50
measure: GI50

Specify measured GI50 for CN(C)CCCOc1nc(N2CC3CCC(C2)N3)c2cc(Cl)c(-c3c(N)cccc3F)c(F)c2n1 .
> 5 µM

Determine from records and report GI50 for CN1CC2CN(c3nc(N4CC5CCC(C4)N5)c4cc(Cl)c(-c5cc(O)cc6ccccc56)c(F)c4n3)CC2C1 (centres unmarked)
0.5 to 5 µM

Report measured GI50; entry is Oc1cc(-c2ccc3c(N4CC5CCC(C4)N5)nc(OCC45CCCN4CCC5)nc3c2F)c2c(Cl)cccc2c1
> 5 µM

Fill in GI50 for record Oc1cc(-c2c(Cl)cc3c(N4CC5CCC(C4)N5)nc(OC[C@]45CCCN4C[C@@H](F)C5)nc3c2F)c2ccccc2c1 (single isomer, unassigned) [Compound 106]
< 0.5 µM

Fill in GI50 for record Nc1nc2c(-c3c(Cl)cc4c(N5CC6CCC(C5)N6)ncnc4c3F)ccc(F)c2s1
0.5 to 5 µM

Name the recorded GI50 of the compound listed here: CN1CC(COc2nc(N3CC4CCC(C3)N4)c3cc(Cl)c(-c4cc(O)cc5ccccc45)c(F)c3n2)CC(F)(F)C1 (centres unmarked)
0.5 to 5 µM

Determine from records and report GI50 for Cc1cccc2cc(O)cc(-c3c(Cl)cc4c(N5CC6CCC(C5)N6)nc(OC[C@@]56CCCN5C[C@H](F)C6)nc4c3F)c12 (single isomer, unassigned) [Compound 118]
< 0.5 µM

Indicate its recorded GI50; the compound in question is CN1CCC[C@H]1COc1nc(-c2cnc(N)s2)c2cc(Cl)c(-c3cc(O)cc4cccc(Cl)c34)c(F)c2n1
> 5 µM

Hello, please tell me recorded GI50 for this one: CN1CCC[C@H]1COc1nc(N2CC3CCC(C2)N3)c2cc(Cl)c(-c3c(N)cccc3F)c(F)c2n1
0.5 to 5 µM

Tell me measured GI50 for CN(C)C1CN(c2nc(N3CC4CCC(C3)N4)c3cc(Cl)c(-c4cc(O)cc5ccccc45)c(F)c3n2)C1 please.
0.5 to 5 µM

Tell me GI50 reported for CN(C)C1CCN(c2nc(N3CC4CCC(C3)N4)c3cc(Cl)c(-c4cc(O)cc5ccccc45)c(F)c3n2)C1 (centres unmarked)
0.5 to 5 µM

Query GI50 for CN(C)C1CCN(c2nc(N3CC4CCC(C3)N4)c3cc(Cl)c(-c4cc(O)cc5ccccc45)c(F)c3n2)CC1
0.5 to 5 µM

Return reported GI50. Input compound: CN1CCC1COc1nc(N2CC3CCC(C2)N3)c2cc(Cl)c(-c3cc(O)cc4ccccc34)c(F)c2n1 (centres unmarked)
0.5 to 5 µM

Please supply the value of reported GI50 for the item Cc1cccc2cccc(-c3c(Cl)cc4c(N5CC6CCC(C5)N6)nc(OC[C@@]56CCCN5C[C@H](F)C6)nc4c3F)c12
0.5 to 5 µM

* * *

Target: recombinant human KRAS^G12D protein (Homo sapiens, UniProt P01116, G12D)
Sequence (P01116 1-188 isoform P01116-2 G12D): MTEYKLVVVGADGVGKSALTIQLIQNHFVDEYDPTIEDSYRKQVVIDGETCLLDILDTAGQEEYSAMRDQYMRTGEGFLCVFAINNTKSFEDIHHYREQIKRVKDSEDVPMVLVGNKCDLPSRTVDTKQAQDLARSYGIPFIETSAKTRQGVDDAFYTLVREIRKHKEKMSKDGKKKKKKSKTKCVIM
Test: Temperature-dependent Fluorescence (TdF) KRAS G12D protein binding assay
Conditions: 6 μM KRAS^G12D protein, 10 μM compound, Sypro Orange; Kd calculated from the fluorescent shift
Protocol: The Temperature-dependent Fluorescence (TdF) assay was used to analyze binding affinity of compound to recombinant human KRAS^G12D protein. The TdF assay was conducted in the 96-well-based real-time fluorescence plate reader (ABI 7500 or Roche LightCycler 480). Fluorescent dye Sypro Orange (Sigma) was used to monitor the protein folding-unfolding transition. […] Binding affinity (Kd value) was calculated based on the degree of fluorescent shift of the protein with and without compound.
pKd: −log10 of the molar value.
So I've got a bunch of molecules here, and I need their pKd values.

Please report pKd with recombinant human KRAS^G12D protein (Homo sapiens, UniProt P01116, G12D) for item CCc1cccc2cc(O)cc(-c3c(Cl)cc4c(N5CC6CCC(C5)N6)nc(OC[C@@]56CCCN5C[C@H](F)C6)nc4c3F)c12 (racemic) [Compound 77] .
> 6.30

// fetch pKd; item: Oc1cc(-c2c(Cl)cc3c(N4C5CCC4CNC5)nc(OCC45CCCN4CCC5)nc3c2F)c2ccccc2c1 [Compound 33] ; system: recombinant human KRAS^G12D protein (Homo sapiens, UniProt P01116, G12D)
> 6.30

Give measured pKd for Oc1cc(-c2c(Cl)cc3c(N4CC5CCC(C4)N5)nc(OC[C@]45CCCN4C[C@@H](F)C5)nc3c2F)c2ccccc2c1 (single isomer, unassigned) [Compound 105] (recombinant human KRAS^G12D protein (Homo sapiens, UniProt P01116, G12D)).
< 5.30
